The reported numbers originate from patent US20230391845A1.

hGIPR CRE Luc EC50 (pM) by entry:
- studyTarget: T1, human glucose-dependent insulinotropic polypeptide receptor (human, UniProt P48546 22-466)
- T1 sequence (looked up): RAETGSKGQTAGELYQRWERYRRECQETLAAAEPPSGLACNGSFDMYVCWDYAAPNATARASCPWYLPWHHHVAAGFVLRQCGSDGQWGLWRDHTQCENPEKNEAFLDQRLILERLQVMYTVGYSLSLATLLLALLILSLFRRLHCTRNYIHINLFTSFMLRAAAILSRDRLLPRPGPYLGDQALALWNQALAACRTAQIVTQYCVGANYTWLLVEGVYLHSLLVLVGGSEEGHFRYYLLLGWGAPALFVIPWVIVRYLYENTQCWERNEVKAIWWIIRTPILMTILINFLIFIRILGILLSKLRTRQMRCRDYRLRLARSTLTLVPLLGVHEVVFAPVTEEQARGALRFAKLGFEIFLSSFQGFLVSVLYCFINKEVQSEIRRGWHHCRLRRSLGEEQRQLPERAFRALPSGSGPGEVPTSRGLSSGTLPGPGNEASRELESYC
- method: cell-based or functional assay
Where no end group is shown, it is not given here. [ ]: non-standard residue; d: D form. Aib = CC(C)(N)C(=O)O
readoutName: hGIPR CRE Luc EC50 (pM)

binder="H[Aib]HGTFTSDYSILLEKQAAEEFVQWLLEGGPSSGAPPPS-OH (not fully specified (residue 16); printed as H-Aib-HGTFTSDYSILLE-K[(2S)-2-amino-6-[[(2S)-2-amino-6-[[(4S)-4-carboxy-4-(19-carboxynonadecanoylamino)butanoyl]amino]hexanoyl]amino]hexanoyl]-QAAEEFVQWLLEGGPSSGAPPPS-OH) [Compound No. 50]" reportedresult=1.9
binder="Y[Aib]QGTFTSDYSIYLDKQAA[Aib]KFVQWLLEGGPSSGAPPPS-NH2 (not fully specified (residue 21); printed as Y-Aib-QGTFTSDYSIYLDKQAA-Aib-K[2-[2-[2-[[2-[2-[2-11(4S)-4-carboxy-4-(19-carboxynonadecanoylamino)butanoyl]amino]ethoxy]ethoxy]acetyl]amino]ethoxy]ethoxy]acetyl]-FVQWLLEGGPSSGAPPPS-NH2) [Compound No. 7]" reportedresult=65.5
